Source of measurements: patent US12227495B2

Form field: Pre-emergence Test ECHCG percentage damage (five point scale) (one value per entry).
# System: Echinochloa crus-galli (ECHCG)
# Assay comment: Pre-emergence herbicide test, glasshouse, percentage damage
# Format: in vivo
# Conditions used: rate 1000 g/ha, evaluated after 13 days
Reported endpoint: Pre-emergence Test ECHCG percentage damage (five point scale)

1) Fc1cc(Cl)cnc1Oc1cccc(F)c1-c1cc(C(F)(F)F)on1 : 5 (5=81-100%)
2) Fc1cc(Br)cnc1Oc1cccc(Br)c1-c1cc(C(F)F)no1 : 5 (5=81-100%)
3) O=[N+]([O-])c1ccc(Oc2cccc(Cl)c2-c2cc(C(F)F)no2)nc1 : 5 (5=81-100%)
4) Fc1cc(Cl)cnc1Oc1cccc(I)c1-n1cc(C(F)(F)F)cn1 : 1 (1=0-20%)
5) Fc1cccc(Oc2cccc(OC(F)F)n2)c1-c1cc(C(F)F)no1 : 1 (1=0-20%)
6) Fc1cc(Cl)cnc1Oc1ccccc1-c1cc(C(F)(F)F)cs1 : 3 (3=41-60%)
7) Fc1cc(C(F)(F)F)cnc1Oc1cccc(Cl)c1-c1cc(C(F)F)no1 : 4 (4=61-80%)
8) FC(F)c1cc(-c2c(Cl)cccc2Oc2ccc(Br)cn2)on1 : 5 (5=81-100%)
9) Fc1cccc(Oc2cc(Cl)ccn2)c1-c1cc(C(F)F)no1 : 2 (2=21-40%)
10) FC(F)c1cc(-c2c(Br)cccc2Oc2ccc(C(F)(F)F)cn2)on1 : 5 (5=81-100%)
11) N#Cc1cccnc1Oc1cccc(Cl)c1-c1cc(C(F)F)no1 : 5 (5=81-100%)
12) N#Cc1cc(F)cnc1Oc1cccc(Br)c1-c1cc(C(F)F)no1 : 5 (5=81-100%)
13) Fc1cccc(Oc2cccc(C(F)F)n2)c1-c1cc(C(F)F)no1 : 1 (1=0-20%)
14) FC(F)c1cc(-c2c(Cl)cccc2Oc2cc(C(F)(F)F)ccn2)on1 : 4 (4=61-80%)
15) N#Cc1ccc(Oc2ccccc2-n2cc(C(F)(F)F)cn2)nc1 : 5 (5=81-100%)
16) Fc1cc(Cl)cnc1Oc1ccc(Br)c(Br)c1-n1cc(C(F)(F)F)cn1 : 1 (1=0-20%)
17) FC(F)c1cc(-c2c(Cl)cccc2Oc2ccc(Cl)cn2)on1 : 5 (5=81-100%)
18) Fc1cc(Cl)cnc1Oc1ccccc1-n1cncn1 : 1 (1=0-20%)
19) Fc1cc(Cl)cnc1Oc1cccc(Cl)c1-n1cc(C(F)(F)F)cn1 : 5 (5=81-100%)
20) Cc1cccc(Oc2ncc(Cl)cc2F)c1-n1cc(C(F)(F)F)cn1 : 3 (3=41-60%)
21) Fc1cccc(Oc2ccc(Br)cn2)c1-c1cc(C(F)F)no1 : 5 (5=81-100%)
22) Fc1cc(Cl)cnc1Oc1ccccc1-n1ccnc1 : 1 (1=0-20%)
23) Fc1cccc(Oc2ncc(C(F)(F)F)cc2Cl)c1-c1cc(C(F)F)no1 : 1 (1=0-20%)
24) N#Cc1cc(Cl)cnc1Oc1cccc(F)c1-c1cc(C(F)F)no1 : 5 (5=81-100%)
25) N#Cc1cc(C(F)(F)F)cnc1Oc1cccc(Cl)c1-c1cc(C(F)F)no1 : 5 (5=81-100%)
26) N#Cc1cccnc1Oc1cccc(Br)c1-c1cc(C(F)F)no1 : 4 (4=61-80%)
27) Fc1cc(C(F)(F)F)cnc1Oc1cccc(Br)c1-c1cc(C(F)F)no1 : 4 (4=61-80%)
28) Fc1cc(Cl)cnc1Oc1ccccc1-n1ncc(C(F)(F)F)n1 : 4 (4=61-80%)
29) CS(=O)(=O)c1ccc(Oc2cccc(F)c2-c2cc(C(F)F)no2)nc1 : 1 (1=0-20%)
30) Fc1cccc(Oc2cc(OC(F)(F)F)ccn2)c1-c1cc(C(F)F)no1 : 1 (1=0-20%)
31) Fc1cccc(Oc2cccc(Cl)c2-c2cc(C(F)F)no2)n1 : 5 (5=81-100%)
32) O=[N+]([O-])c1cccc(Oc2ncc(Cl)cc2F)c1-n1cc(C(F)(F)F)cn1 : 4 (4=61-80%)
33) Fc1cnc(Oc2cccc(Cl)c2-c2cc(C(F)F)no2)c(F)c1 : 5 (5=81-100%)
34) Fc1cc(Cl)cnc1Oc1ccccc1-n1cc(C(F)(F)F)cn1 : 5 (5=81-100%)
35) N#Cc1cnc(Oc2cccc(F)c2-c2cc(C(F)F)no2)c(F)c1 : 5 (5=81-100%)
